A collection of molecules and their measured Population Mitotic Cells (%)
- Tested on: Fibroblast
- test_protocol: Multiplex assay against human fibroblast
- Type: toxicity, cell-based
- condition: 24 h, 1 µM, compound concentration 1 uM, replicate 2

COc1ccc(-c2ccc3ncc4c(c3c2)n(-c2ccc(N3CCNCC3)c(C(F)(F)F)c2)c(=O)n4C)cn1.O=C(O)/C=C\C(=O)O	16%
Cc1nc(N2CC[C@H](O)C2)ncc1-c1cc(C(F)(F)F)cc2[nH]ncc12	40%
Cc1cccc(CN2CCN(C(c3ccccc3)c3ccc(Cl)cc3)CC2)c1.Cl.Cl (stereo not drawn)	20%
CN1CCN(Cc2ccc(Nc3ncc(Cl)c(Nc4ccccc4S(=O)(=O)N(C)C)n3)cc2)CC1	100%

Field: next molecule
Notebook: pull reported Population Mitotic Cells (%) for Fibroblast, entry "CC(C)c1noc(N2CCC(COc3ccc(-c4ccc(S(C)(=O)=O)cc4)nc3)CC2)n1"
100%
